Molecular target: UniProt:Q9Y5Y9
Sequence (Q9Y5Y9 whole entry): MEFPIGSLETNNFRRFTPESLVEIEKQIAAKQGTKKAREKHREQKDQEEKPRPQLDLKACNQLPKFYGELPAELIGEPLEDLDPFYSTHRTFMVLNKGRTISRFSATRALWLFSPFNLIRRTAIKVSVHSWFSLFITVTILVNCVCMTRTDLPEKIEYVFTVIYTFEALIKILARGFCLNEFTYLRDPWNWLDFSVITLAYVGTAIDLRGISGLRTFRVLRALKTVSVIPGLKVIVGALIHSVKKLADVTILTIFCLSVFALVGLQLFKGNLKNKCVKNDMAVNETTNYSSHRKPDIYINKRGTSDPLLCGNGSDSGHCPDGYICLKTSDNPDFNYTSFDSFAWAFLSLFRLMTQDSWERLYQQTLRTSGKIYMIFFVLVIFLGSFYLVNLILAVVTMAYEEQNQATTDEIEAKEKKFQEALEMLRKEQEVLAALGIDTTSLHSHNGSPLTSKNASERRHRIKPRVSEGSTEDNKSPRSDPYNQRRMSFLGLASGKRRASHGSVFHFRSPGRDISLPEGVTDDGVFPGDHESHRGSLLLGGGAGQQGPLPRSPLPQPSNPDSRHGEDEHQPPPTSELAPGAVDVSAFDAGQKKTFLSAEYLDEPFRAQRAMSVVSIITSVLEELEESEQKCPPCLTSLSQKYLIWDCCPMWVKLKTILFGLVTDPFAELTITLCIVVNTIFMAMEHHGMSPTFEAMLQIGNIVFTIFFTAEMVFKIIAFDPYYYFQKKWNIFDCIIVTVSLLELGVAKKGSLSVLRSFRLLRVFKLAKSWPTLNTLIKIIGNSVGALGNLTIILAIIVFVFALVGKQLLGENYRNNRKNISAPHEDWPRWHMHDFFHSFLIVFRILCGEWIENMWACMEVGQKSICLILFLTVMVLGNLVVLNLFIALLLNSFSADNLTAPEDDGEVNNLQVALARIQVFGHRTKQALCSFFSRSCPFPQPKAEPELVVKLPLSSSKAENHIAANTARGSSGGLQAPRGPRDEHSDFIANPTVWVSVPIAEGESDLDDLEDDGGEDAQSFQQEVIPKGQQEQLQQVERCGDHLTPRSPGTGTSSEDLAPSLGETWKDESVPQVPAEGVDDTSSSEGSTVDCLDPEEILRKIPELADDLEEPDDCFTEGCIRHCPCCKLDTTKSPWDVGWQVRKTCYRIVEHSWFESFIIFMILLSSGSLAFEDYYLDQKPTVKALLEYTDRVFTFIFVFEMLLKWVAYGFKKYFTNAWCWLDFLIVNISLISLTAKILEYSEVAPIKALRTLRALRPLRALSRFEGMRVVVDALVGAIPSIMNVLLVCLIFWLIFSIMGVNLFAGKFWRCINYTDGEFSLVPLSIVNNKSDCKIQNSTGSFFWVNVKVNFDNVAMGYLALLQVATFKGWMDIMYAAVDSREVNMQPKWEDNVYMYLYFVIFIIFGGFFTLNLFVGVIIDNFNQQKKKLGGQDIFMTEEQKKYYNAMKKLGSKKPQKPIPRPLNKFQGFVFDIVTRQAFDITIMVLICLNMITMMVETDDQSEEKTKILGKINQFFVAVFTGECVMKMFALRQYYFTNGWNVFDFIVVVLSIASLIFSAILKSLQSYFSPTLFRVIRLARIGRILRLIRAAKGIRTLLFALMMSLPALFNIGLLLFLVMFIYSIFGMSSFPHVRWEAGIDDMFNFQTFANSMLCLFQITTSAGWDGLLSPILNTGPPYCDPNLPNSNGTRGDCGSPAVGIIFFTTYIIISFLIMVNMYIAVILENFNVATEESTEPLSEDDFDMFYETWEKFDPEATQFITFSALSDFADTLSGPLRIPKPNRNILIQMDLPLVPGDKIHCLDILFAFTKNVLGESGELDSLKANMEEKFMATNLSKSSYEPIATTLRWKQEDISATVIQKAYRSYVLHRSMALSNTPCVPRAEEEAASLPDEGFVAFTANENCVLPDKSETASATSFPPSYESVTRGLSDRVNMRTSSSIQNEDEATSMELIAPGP
Experiment: E-VIPR optical membrane potential assay with electrical stimulation
Details: HEK cells expressing human Nav1.8
Experimental: E-VIPR Optical Membrane Potential Assay Method with Electrical Stimulation Sodium channels are voltage-dependent proteins that can be activated by inducing membrane voltage changes by applying electric fields. […] 7) Read Plate on E-VIPR. […] Data was analyzed and reported as normalized ratios of emission intensities measured in the 460 nm and 580 nm channels. […]
property: IC50 (nM)
Response body: numeric value in nM, unit text excluded.

See these solved cases before continuing.
{"columns": ["line_notation", "experimental_value"],
 "data": [
  ["COc1cc(F)ccc1Oc1cc(Cl)ccc1C(=O)Nc1cccc(S(N)(=O)=O)c1", 13],
  ["Cc1cc(Cl)ccc1Oc1cccc(C(F)(F)F)c1C(=O)Nc1cccc(S(N)(=O)=O)c1", 6],
  ["NS(=O)(=O)c1cccc(NC(=O)c2ccc(C(F)(F)F)cc2Oc2ccc(OC(F)(F)F)cc2)c1", 14],
  ["COc1cc(F)ccc1Oc1cc(OC(F)(F)F)ccc1C(=O)Nc1cccc(S(N)(=O)=O)c1", 5],
  ["NS(=O)(=O)c1cccc(NC(=O)c2c(Oc3ccc(F)cc3)cc(C(F)(F)F)cc2C(F)(F)F)c1", 7]
]}

API: the following record is the query input.
## Task For the compound shown here, `Cc1cc(F)ccc1Oc1cc(C(F)(F)F)cc(C(F)(F)F)c1C(=O)Nc1cccc(S(N)(=O)=O)c1` , give the reported IC50.
## Result 2

Where do the numbers come from? From patent US11203571B2.
